# System: HCT116 line (human colon cancer cell line)
# Assay explanation: Antiproliferative (cytotoxic) activity on HCT116 line, ATPLite cell viability, 72 hours
# Format: cell-based
# Settings: HCT-116, HCT116, 72 hours after addition, ATPLite, read-out: HCT116 (EC50)
Consider the cut-off 4 nM. If the recorded EC50 is strictly smaller, the label is Fulfilled; if not, the label is Not fulfilled.

Record COC(=O)[C@H]1[C@@H](O)[C@@]2(O)c3c(OC)cc(O[C@@H]4O[C@@H]([C@H](O)CO)CO[C@H]4OC)cc3O[C@@]2(c2ccc(OC)cc2)[C@@H]1c1ccccc1 [silvestrol, reference compound] : is its EC50 strictly below 4 nM?
Fulfilled

Record COc1ccc([C@@]23Oc4cc(OC)cc(OC)c4[C@]2(O)[C@@H]2OC(=O)N[C@@H]2[C@H]3c2ccccc2)cc1 (racemic) : is its EC50 strictly below 4 nM?
Fulfilled

Record COc1ccc([C@@]23Oc4cc(OC)cc(OC)c4[C@]2(O)[C@@H]2OC(N)=N[C@@H]2[C@H]3c2ccccc2)cc1 (racemic) : is its EC50 strictly below 4 nM?
Fulfilled

Record COC(=O)[C@H]1[C@@H](O)[C@@]2(O)c3c(OC)cc(OCCCCN(C)C)cc3O[C@@]2(c2ccc(OC)cc2)[C@@H]1c1ccccc1 (racemic) : is its EC50 strictly below 4 nM?
Not fulfilled

Record COc1ccc([C@@]23Oc4cc(OCCCCO)cc(OC)c4[C@]2(O)[C@@H]2OC(=O)N[C@@H]2[C@H]3c2ccccc2)cc1 (racemic) : is its EC50 strictly below 4 nM?
Fulfilled

Record COc1ccc([C@@]23Oc4cc(OCCCC(O)CO)cc(OC)c4[C@]2(O)[C@@H]2OC(=O)N[C@@H]2[C@H]3c2ccccc2)cc1 (mixture of isomers) : is its EC50 strictly below 4 nM?
Not fulfilled

Record COc1ccc([C@@]23Oc4cc(OC)cc(OC)c4[C@]2(O)[C@@H]2OC(=S)N[C@@H]2[C@H]3c2ccccc2)cc1 (racemic) : is its EC50 strictly below 4 nM?
Fulfilled

Record CN[C@H]1[C@@H](O)[C@@]2(O)c3c(OC)cc(OC)cc3O[C@@]2(c2ccc(OC)cc2)[C@@H]1c1ccccc1 (racemic) : is its EC50 strictly below 4 nM?
Fulfilled
